Readings of bioavailability for the listed compounds
- protocol: Oral bioavailability in CD1 mouse 10 mg/kg measured up to 24 hrs by LC-MS/MS.analysis
- Format: ADME, organism-based
- reported.conditions: in vivo
Expressed in %, but write only the number.

Give the measured bioavailability of `C[C@H]1c2cccc(C(C)(C)O)c2C[C@H](CO)N1C(=O)Cc1c(Cl)cccc1Cl` .
9

Give the measured bioavailability of C[C@H]1c2cccc(CCC(C)(C)O)c2C[C@H](CO)N1C(=O)Cc1c(Cl)cccc1Cl (stereo in doubt; form 1) .
32

---

Readings of solubility for the listed molecules
- protocol: Solubility of the compound in pH 6.0 buffer by high throughput solubility assay
- Format: physicochemical
Expressed in µg/mL, but write only the number.

These recorded examples may help you get a feel for the data.
Give the measured solubility of C[C@H]1c2cccc(CCC(C)(C)O)c2C[C@H](CO)N1C(=O)Cc1c(Cl)cccc1Cl (stereo in doubt; form 1) .
65

Give the measured solubility of `C[C@H]1c2cccc(C(C)(C)O)c2C[C@H](CO)N1C(=O)Cc1c(Cl)cccc1Cl` .
116

Next molecule, solubility to be filled in.
Give the measured solubility of `C[C@H]1c2cccc(CC(C)(C)O)c2C[C@H](CO)N1C(=O)Cc1c(Cl)cccc1Cl` .
156

---

- subject.of.test: D(1B) dopamine receptor (Homo sapiens)
- Sequence (P21918 whole entry): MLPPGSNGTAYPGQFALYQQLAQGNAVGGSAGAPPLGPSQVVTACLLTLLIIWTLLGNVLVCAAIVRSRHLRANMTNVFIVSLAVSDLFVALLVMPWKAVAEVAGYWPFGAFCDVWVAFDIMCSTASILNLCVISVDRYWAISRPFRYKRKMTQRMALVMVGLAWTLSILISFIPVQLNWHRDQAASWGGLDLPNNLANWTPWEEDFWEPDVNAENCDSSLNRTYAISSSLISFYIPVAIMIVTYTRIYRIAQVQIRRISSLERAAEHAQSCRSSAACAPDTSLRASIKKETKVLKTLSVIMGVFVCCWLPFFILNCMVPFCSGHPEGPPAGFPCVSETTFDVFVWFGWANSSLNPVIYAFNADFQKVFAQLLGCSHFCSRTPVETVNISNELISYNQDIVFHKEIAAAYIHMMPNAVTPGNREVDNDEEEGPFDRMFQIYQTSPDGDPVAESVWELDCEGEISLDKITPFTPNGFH
- protocol: Positive allosteric modulator activity at human D5 receptor transiently expressed in HEK293 cells assessed as potentiation of EC20 dopamine-induced cAMP accumulation incubated for 60 mins by HTRF assay
- Assay type: functional, cell-based
pEC50: −log10 of the molar value.
measured.metric: pEC50

Give the measured pEC50 of C[C@H]1c2cccc(CCC(C)(C)O)c2C[C@H](CO)N1C(=O)Cc1c(Cl)cccc1Cl (stereo in doubt; form 1) .
< 5.00

---

- protocol: AUC in CD1 mouse 10 mg/kg, po measured up to 24 hrs by LC-MS/MS.analysis
- Type: ADME, organism-based
- Set-up: dose 10 mg/kg, time < 24 hr, route oral
- reported.conditions: in vivo
measured.metric: AUC at 24 h (µM·h)
Expressed in µM·h, but write only the number.

Give the measured AUC at 24 h of C[C@H]1c2cccc(CCC(C)(C)O)c2C[C@H](CO)N1C(=O)Cc1c(Cl)cccc1Cl (stereo in doubt; form 1) [MEVIDALEN] .
18.5

Next compound, AUC at 24 h to be filled in.
Give the measured AUC at 24 h of `C[C@H]1c2cccc(C(C)(C)O)c2C[C@H](CO)N1C(=O)Cc1c(Cl)cccc1Cl` .
0.367

---

- protocol: Solubility in fed state simulated intestinal fluids
- Assay type: physicochemical
- reported.conditions: fed state simulated intestinal fluid; read-out: solubility
measured.metric: solubility (µg/mL)
Expressed in µg/mL, but write only the number.

Give the measured solubility of C[C@H]1c2cccc(CCC(C)(C)O)c2C[C@H](CO)N1C(=O)Cc1c(Cl)cccc1Cl.O=C(O)c1ccc(O)cc1 [MEVIDALEN HYDROXYBENZOATE] .
697

---

- protocol: Clearance in CD1 mouse 1 mg/kg, iv measured up to 24 hrs by LC-MS/MS.analysis
- Type: ADME, organism-based
- reported.conditions: in vivo
measured.metric: clearance
Output should be the measured figure followed by the unit it is expressed in.

Give the measured clearance of `C[C@H]1c2cccc(C(C)(C)O)c2C[C@H](CO)N1C(=O)Cc1c(Cl)cccc1Cl` .
96.9 mL/min/kg

Next molecule, clearance to be filled in.
Give the measured clearance of C[C@H]1c2cccc(CCC(C)(C)O)c2C[C@H](CO)N1C(=O)Cc1c(Cl)cccc1Cl (stereo in doubt; form 1) .
6.4 mL/min/kg

---

- protocol: Unbound fraction in mouse brain by equilibrium dialysis assay
- Type: ADME, tissue-based
measured.metric: fraction unbound
Quick one: just the number, no unit, thanks!

Give the measured fraction unbound of C[C@H]1c2cccc(CCC(C)(C)O)c2C[C@H](CO)N1C(=O)Cc1c(Cl)cccc1Cl (stereo in doubt; form 1) .
0.025

Next molecule, fraction unbound to be filled in.
Give the measured fraction unbound of `C[C@H]1c2cccc(C(C)(C)O)c2C[C@H](CO)N1C(=O)Cc1c(Cl)cccc1Cl` .
0.055
